subject_of_test: E. coli DNA gyrase (Escherichia coli, UniProt P0AES4+P0AES6)
method_summary: E. coli DNA gyrase supercoiling assay
Format: biochemical
run_conditions: supercoiling assay, relaxed plasmid DNA
readout_label: E. coli DNA gyrase IC50

CCCCCc1cc(OC(=O)c2c(CCCCC)cc(OCc3ccccc3)cc2OCc2ccccc2)cc(O)c1C(=O)OCc1ccccc1: inactive
CCCCCc1cc(O)cc(O)c1C(=O)Oc1cc(CCCCC)c2c(c1)OC(C)(C)OC2=O: inactive

Values were extracted from paper PMC3867937.
